# Test system: HOP-62 NSCLC
# TEST DESCRIPTION: NCI tumour cell line growth inhibition, 48 h; in the data active = GI50 below about 0.43 µM; inactive = the rest
Just give me one of these, please: Y = active, N = inactive

### Prompt // return assay outcome for CC1COc2c(N3CCN(C)CC3)c(F)cc3c(=O)c(C(=O)O)cn1c23 (stereo not given)
### Response N

### Prompt // return assay outcome for Clc1ccc2c(c1)N(CCCN1CCCC1)c1ccccc1S2
### Response N

***
### Prompt // return assay outcome for NC1CCC(Nc2nc(NCc3ccc(-c4cccs4)nc3)c3ncn(C4CCCC4)c3n2)CC1 (stereo not given)
### Response Y

### Prompt // return assay outcome for Cn1cc(C2=C(c3cn(C)c4c([N+](=O)[O-])cccc34)C(=O)NC2=O)c2ccccc21
### Response N

### Prompt // return assay outcome for O=C1NC(=O)C(=C/C=C/c2ccccc2)C(=O)N1
### Response N

### Prompt // return assay outcome for Cc1ccc2ncnc(N(CC(C)C)CC(C)C)c2c1
### Response N

### Prompt // return assay outcome for CCN1C(=O)N(CC)C2Nn3c(s/c(=C\c4ccccc4Br)c3=O)=NC21 (stereo not given)
### Response N

### Prompt // return assay outcome for CC(=O)c1cc(C(=O)c2ccc3c(c2)Sc2ccccc2N3)c2c(C)cc(C)cn12
### Response Y

### Prompt // return assay outcome for O=[N+]([O-])c1ccccc1N/N=C\c1c[nH]c2ccccc12
### Response N

### Prompt // return assay outcome for COc1ccc(C(=O)c2cc(OC)c(OC)c(OC)c2)cc1/C=C/C(=O)c1ccc(OC)c(OC)c1
### Response N

====

# Test system: OVCAR-3 ovarian
# TEST DESCRIPTION: NCI tumour cell line growth inhibition, 48 h
OBSERVED PROPERTY: GI50

Worked cases, answers included:
### Prompt Entry under review: Cc1cc(O)ccc1C1=NN(c2ccc(S(C)(=O)=O)cc2)C(=O)CC1 . Reported GI50?
### Response 3.41 µM

### Prompt Entry under review: COc1ccc2c(c1)[nH]c(=O)c1c3cc(OC)ccc3cn21 . Reported GI50?
### Response < 0.01 µM

State recorded GI50 for all listed molecules.
1. Cc1ccc2ncnc(N(CC(C)C)CC(C)C)c2c1
2. C/C(=C\CCc1ccoc1)CC/C=C(\C)CCCN1CCOCC1

### Response
1: 16.3 µM; 2: 3.73 µM

====

I'd be grateful if you could share measured TGI for these entries.
# Tested on: LXFL 529 NSCLC
# TEST DESCRIPTION: NCI tumour cell line growth inhibition, 48 h

### Prompt Entry under review: COC1C=COC2(C)Oc3c(C)c(O)c4c(O)c(c(/C=N/N5CCN(N)CC5)c(O)c4c3C2=O)NC(=O)C(C)=CC=CC(C)C(O)C(C)C(O)C(C)C(OC(C)=O)C1C (stereo unspecified) . Reported TGI?
### Response > 100 µM

State recorded TGI for all listed compounds.
1. Cc1[nH]nc(N)c1C(N)=O
2. CC[P+](C)(C)c1ccccc1
3. CC1CC(=O)Nc2ccccc2N1C(=O)CN1CCC(CCCCN(C)C)CC1 (stereo unspecified)
4. NC(=O)CCC(N=C(N)c1csc(C2OC(CO)C(O)C2O)n1)C(=O)O (stereo unspecified)
5. COC(=O)/C(=N\Nc1nc(=S)[nH]n1N)C(C#N)c1ccccc1 (stereo unspecified)

### Response
1: > 100 µM; 2: > 100 µM; 3: > 100 µM; 4: > 100 µM; 5: > 100 µM
